Assay: Phase 1 study of compound (2) with ethanol: pharmacokinetics of compound (1) and breath alcohol
Conditions: male, human, plasma, po
Result Type: Tmax

(Q) # return recorded Tmax for input O=C(NCc1ccc(-c2cc[nH]c(=O)c2)cc1)c1c(Cl)cccc1Cl [Compound (1)]
(A) 3.5 to 5 h

====

Experiment: Phase 1 study of compound (2) with ethanol: pharmacokinetics of compound (1) and breath alcohol
Conditions: male, human, plasma, po
Result Type: half-life

(Q) // Input: O=C(NCc1ccc(-c2cc[nH]c(=O)c2)cc1)c1c(Cl)cccc1Cl [Compound (1)] . Output its half-life only.
(A) 1020 to 1620 min
